- TESTED_SYSTEM: Quadruplex DNA
- PROCEDURE_SUMMARY: Binding affinity to 5-terminal mt6363 DNA (unknown origin) assessed as dissociation constant by TAMRA-labeled G4 quenching assay
- Assay type: nucleic-acid assay
ENDPOINT_LABEL: Kd (µM)

These solved cases illustrate the format of a correct answer.
SMILES_STRING | MEASUREMENT_UNITS | Kd
COc1ccc(N(c2ccc(/C=C/c3ccc4ccccc4[n+]3C)cc2)c2ccc(OC)cc2)cc1 | µM | 9
COc1ccc(N(c2ccc(/C=C/C3=[N+](C)c4ccccc4C3(C)C)cc2)c2ccc(OC)cc2)cc1 | µM | 4.3
COc1ccc(N(c2ccc(/C=C/C3=[N+](C)c4ccc5ccccc5c4C3(C)C)cc2)c2ccc(OC)cc2)cc1.[I-] | µM | 2.4
C[n+]1c(/C=C/c2ccc(N(c3ccccc3)c3ccccc3)cc2)ccc2ccccc21 | µM | 5.5

A: C[N+]1=C(/C=C/c2ccc(N(c3ccccc3)c3ccccc3)cc2)C(C)(C)c2c1ccc1ccccc21
B: C[N+]1=C(/C=C/c2ccc(N(c3ccccc3)c3ccccc3)cc2)C(C)(C)c2ccccc21
Query: Select the item with the higher value of Kd from the options A and B listed. Answer format: the label of the selected item.
Response: B
(B: 7.3 µM, A: 1.4 µM)

----------
- PROCEDURE_SUMMARY: Cytotoxicity against human MCF-10A assessed as cell growth inhibition incubated for 24 hrs by CCK-8 assay
- Assay type: toxicity, cell-based
- CONDITIONS_USED: MCF-10A cells
ENDPOINT_LABEL: IC50 at 24 h (µM)
Field format: number, assumed µM, no unit text.

These solved cases illustrate the format of a correct answer.
SMILES_STRING | IC50 at 24 h / µM
COc1ccc(N(c2ccc(/C=C/C3=[N+](C)c4ccc5ccccc5c4C3(C)C)cc2)c2ccc(OC)cc2)cc1.[I-] | 9.6
C[N+]1=C(/C=C/c2ccc(N(c3ccccc3)c3ccccc3)cc2)C(C)(C)c2c1ccc1ccccc21 | 7
C[N+]1=C(/C=C/c2ccc(N(c3ccccc3)c3ccccc3)cc2)C(C)(C)c2ccccc21 | 5
C[n+]1c(/C=C/c2ccc(N(c3ccccc3)c3ccccc3)cc2)ccc2ccccc21 | 38
COc1ccc(N(c2ccc(/C=C/c3ccc4ccccc4[n+]3C)cc2)c2ccc(OC)cc2)cc1 | 39.4

Query: Which IC50 at 24 h value is on record for COc1ccc(N(c2ccc(/C=C/C3=[N+](C)c4ccccc4C3(C)C)cc2)c2ccc(OC)cc2)cc1 ?
Response: 8.5

----------
- System: 4T1
- PROCEDURE_SUMMARY: Cytotoxicity against mouse 4T1 cells assessed as reduction in cell viability incubated for 24 hrs by CCK-8 assay
- Assay type: functional, cell-based
- CONDITIONS_USED: 4T1, 24 h
ENDPOINT_LABEL: IC50 (µM)
Field format: number, assumed µM, no unit text.

Query: Which IC50 value is on record for COc1ccc(N(c2ccc(/C=C/c3ccc4ccccc4[n+]3C)cc2)c2ccc(OC)cc2)cc1 ?
Response: 9.9

Query: Which IC50 value is on record for C[n+]1c(/C=C/c2ccc(N(c3ccccc3)c3ccccc3)cc2)ccc2ccccc21 ?
Response: 9.6

Query: Which IC50 value is on record for COc1ccc(N(c2ccc(/C=C/C3=[N+](C)c4ccc5ccccc5c4C3(C)C)cc2)c2ccc(OC)cc2)cc1.[I-] ?
Response: 1.9

Query: Which IC50 value is on record for COc1ccc(N(c2ccc(/C=C/C3=[N+](C)c4ccccc4C3(C)C)cc2)c2ccc(OC)cc2)cc1 ?
Response: 3.5

Query: Which IC50 value is on record for C[N+]1=C(/C=C/c2ccc(N(c3ccccc3)c3ccccc3)cc2)C(C)(C)c2ccccc21 ?
Response: 4.8

Query: Which IC50 value is on record for C[N+]1=C(/C=C/c2ccc(N(c3ccccc3)c3ccccc3)cc2)C(C)(C)c2c1ccc1ccccc21 ?
Response: 4.3
